Sourced from the supplement of paper PMC3545927

molecular target: furin, P09958; assay: furin cleavage Z-score vs untreated control; higher = more cleavage, active = 3.5 or more, inactive = 1 or less, 8 variable residues between constant flanks; settings: 15 min;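 further: purified furin at 1:10 enzyme:substrate in 50 mM HEPES pH 7.5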
Sequence (P09958 whole entry): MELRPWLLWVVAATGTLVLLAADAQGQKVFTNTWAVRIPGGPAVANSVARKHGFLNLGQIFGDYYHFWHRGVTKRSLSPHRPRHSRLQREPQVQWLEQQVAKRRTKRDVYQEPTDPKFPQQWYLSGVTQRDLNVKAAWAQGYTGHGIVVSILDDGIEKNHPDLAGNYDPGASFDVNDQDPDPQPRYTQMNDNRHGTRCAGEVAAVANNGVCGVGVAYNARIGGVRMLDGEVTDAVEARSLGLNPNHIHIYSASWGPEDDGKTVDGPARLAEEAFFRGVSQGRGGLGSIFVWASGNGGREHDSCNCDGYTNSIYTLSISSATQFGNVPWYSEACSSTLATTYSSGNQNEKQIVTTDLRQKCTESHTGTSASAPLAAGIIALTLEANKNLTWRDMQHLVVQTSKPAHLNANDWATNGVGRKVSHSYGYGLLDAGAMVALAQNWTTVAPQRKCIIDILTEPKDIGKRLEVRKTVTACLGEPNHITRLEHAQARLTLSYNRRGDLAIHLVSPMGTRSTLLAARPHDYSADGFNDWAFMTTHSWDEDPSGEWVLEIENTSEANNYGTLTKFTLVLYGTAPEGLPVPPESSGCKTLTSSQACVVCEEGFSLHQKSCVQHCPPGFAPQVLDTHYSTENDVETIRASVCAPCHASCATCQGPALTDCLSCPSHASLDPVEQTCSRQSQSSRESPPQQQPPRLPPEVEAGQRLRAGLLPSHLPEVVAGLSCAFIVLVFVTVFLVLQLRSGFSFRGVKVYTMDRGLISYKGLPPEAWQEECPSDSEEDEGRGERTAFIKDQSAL
The other results are listed elsewhere or left out. No count for the full screen is at hand.
Outcomes: 1.0 (active), 0.0 (inactive)

entry-sequence	cat
CAEVPCHRLSAGNASASA [HC2385]	0.0
CARAARSLLQAGNASASA [FS-1679]	0.0
CARSVRFISNAGNASASA [FS-2821]	0.0
CAVLGRKKRTAGNASASA [FS-1102]	1.0
CAMLSRFGRFAGNASASA [FS-692]	0.0
CAVLHRNKRTAGNASASA [FS-1661]	1.0
CATVLDQAETAGNASASA [HC826]	0.0
CAVLEVVTSTAGNASASA [HC2270]	0.0
CAPRRRKGRNAGNASASA [FS-1473]	1.0
CATVRRQKREAGNASASA [FS-1175]	1.0
CARSVRSTRDAGNASASA [FS-1075]	1.0
CASPGRSARPAGNASASA [FS-93]	0.0
CAYVVTSTWVAGNASASA [HC2149]	0.0
CARLSRFPRFAGNASASA [FS-490]	1.0
